- System: Mannose-6-phosphate isomerase (Homo sapiens)
- Assay name: inhibitors of human PMI, primary screen, biochemical, fluorescence intensity, coupled assay (AID 1209)
- Experimental setup: purified PMI enzyme, at 20 µM
The campaign covered roughly 190,000 compounds. About 810 (0.43%) were called active. Rule as the data show it: active = inhibition above about 50%; inactive = the rest. The full list was thinned out, with actives kept by preference.
Outcome codes: active, inactive

>  <Compound>
Cc1noc(C)c1C(=O)OCC(=O)NC(=O)NC12CC3CC(CC(C3)C1)C2

>  <Class>
inactive

$$$$
>  <Compound>
O=C(Cc1csc(N2CCOCC2)n1)N/N=C/c1ccc(Cl)cc1Cl

>  <Class>
inactive

$$$$
>  <Compound>
CCSc1nnc(NC(=O)CC)s1

>  <Class>
inactive

$$$$
>  <Compound>
COc1ccc(-c2csc(NC(=O)Cc3cccc4ccccc34)c2C(=O)O)cc1

>  <Class>
inactive

$$$$
>  <Compound>
O=[N+]([O-])c1ccc(N/N=C/c2cccc(O)c2O)c(S(=O)(=O)N2CCOCC2)c1

>  <Class>
inactive

$$$$
>  <Compound>
Cc1ccc(NCCC(=O)c2cccc([N+](=O)[O-])c2)c(C)c1

>  <Class>
active

$$$$
>  <Compound>
Cc1nn(Cc2ccc(Cl)cc2)c(C)c1NC(=O)c1noc2c1CCCCC2

>  <Class>
inactive

$$$$
>  <Compound>
Cc1c(Br)c(=O)oc2c(Br)c(O)ccc12

>  <Class>
inactive

$$$$
>  <Compound>
CCc1ccc(N2CCCn3c2nc2c3c(=O)n(CCN3CCOCC3)c(=O)n2C)cc1

>  <Class>
inactive

$$$$
>  <Compound>
Cc1c(Br)c(=O)oc2c(Br)c(O)c(O)cc12

>  <Class>
inactive

$$$$
>  <Compound>
O=S1(=O)NC(=NCCc2ccccn2)c2ccccc21

>  <Class>
inactive

$$$$
>  <Compound>
O=c1oc2c(O)c(O)cc3c(=O)oc4c(O)c(O)cc1c4c23

>  <Class>
active

$$$$
>  <Compound>
Cc1nc2ccccc2n1CC(=O)OCC(=O)NCc1ccccc1

>  <Class>
inactive

$$$$
>  <Compound>
CCN(C(=O)CSc1nnc(Cn2nnc3ccccc32)o1)c1nc(C)cs1

>  <Class>
inactive

$$$$
>  <Compound>
O=C(Nc1ncccn1)c1ccc(C(F)(F)F)cc1

>  <Class>
inactive

$$$$
>  <Compound>
Oc1c(CN2CCCCC2)cc(Br)c2cccnc12

>  <Class>
active

$$$$
>  <Compound>
CCOc1ccc(NC(=O)NC(C)CC)cc1 (configuration not stated)

>  <Class>
inactive

$$$$
>  <Compound>
O=[N+]([O-])c1cccc(-c2nc3ccc([N+](=O)[O-])cc3[nH]2)c1

>  <Class>
inactive

$$$$
>  <Compound>
O=C(CCNc1ccccc1)c1cccc([N+](=O)[O-])c1

>  <Class>
active

$$$$
>  <Compound>
CC(C)(C)NC(=O)COC(=O)/C=C/c1ccccc1[N+](=O)[O-]

>  <Class>
inactive

$$$$
>  <Compound>
CCOC(=O)N1CCN(Cc2cc(Cl)c3cccnc3c2O)CC1

>  <Class>
active

$$$$
>  <Compound>
CCN(C(=S)Nc1ccc(Oc2ccccc2)cc1)c1ccccc1

>  <Class>
inactive

$$$$
>  <Compound>
CCN(C(=S)Nc1cccnc1)c1ccccc1

>  <Class>
inactive

$$$$
>  <Compound>
CN1CCN(Cc2cc(COCc3ccccc3)c3cccnc3c2O)CC1

>  <Class>
inactive

$$$$
>  <Compound>
COc1ccccc1N1CCN(Cc2cc(Br)c(O)c3ncccc23)CC1

>  <Class>
inactive

$$$$
>  <Compound>
CN(C(=S)Nc1ccc(SC(F)F)cc1)c1ccc(O)cc1

>  <Class>
active

$$$$
>  <Compound>
CCN(C(=S)Nc1cccnc1)c1cccc2ccccc12

>  <Class>
active

$$$$
>  <Compound>
O=[N+]([O-])c1cc(CN2CCCC2)c2cccnc2c1O

>  <Class>
inactive

$$$$
>  <Compound>
CN1CCC(N(C)C(=S)Nc2ccc(SC(F)F)cc2)CC1

>  <Class>
inactive

$$$$
>  <Compound>
CN1CCN(Cc2cc(Cl)c3cccnc3c2OC(=O)c2cccs2)CC1

>  <Class>
inactive

$$$$
>  <Compound>
O=C(CCNc1ccc(Cc2ccncc2)cc1)c1ccc([N+](=O)[O-])cc1

>  <Class>
active

$$$$
>  <Compound>
O=C(CCc1ccc(S(=O)(=O)N2CCOCC2)cc1)N/N=C/c1ccc(O)c(O)c1O

>  <Class>
active

$$$$
>  <Compound>
O=S1(=O)Nc2c(ccc3cccnc23)-c2ccccc21

>  <Class>
active

$$$$
>  <Compound>
O=C(CSc1n[nH]c(=O)[nH]c1=O)Nc1ccc(C(=O)O)cc1

>  <Class>
inactive

$$$$
>  <Compound>
O=C(Cc1csc(N2CCOCC2)n1)N/N=C/c1cccc(O)c1

>  <Class>
inactive

$$$$
>  <Compound>
CN(C(=S)Nc1cccnc1)c1ccc(O)cc1

>  <Class>
active

$$$$
>  <Compound>
CN(Cc1nc2ccccc2c(=O)[nH]1)CC(O)COCc1ccco1 (configuration not stated)

>  <Class>
inactive

$$$$
>  <Compound>
CCN(C(=S)NCc1ccccc1)c1cccc2ccccc12

>  <Class>
inactive

$$$$
>  <Compound>
O=C(CCN1CCN(c2ccccc2)CC1)N/N=C/c1ccccc1O

>  <Class>
inactive

$$$$
>  <Compound>
COc1ccc(/C=N/NC(=O)CCN2CCN(c3ccccc3)CC2)c(OC)c1OC

>  <Class>
inactive

$$$$
>  <Compound>
Oc1ccc(CN2CCN(c3ccccc3)CC2)c2cccnc12

>  <Class>
inactive

$$$$
>  <Compound>
CCN(CC)C(=O)c1cn(C)c(=O)c2cc(OC)c(OC)cc12

>  <Class>
inactive

$$$$
>  <Compound>
c1ccc(-c2ccccc2-n2cnnn2)cc1

>  <Class>
inactive

$$$$
>  <Compound>
Cc1noc(C)c1C(=O)OCC(=O)NC1CC1

>  <Class>
inactive

$$$$
>  <Compound>
O=C(CSc1nc2ccccc2o1)NCC(=O)c1ccccc1

>  <Class>
inactive

$$$$
>  <Compound>
COc1ccccc1N1CCN(Cc2ccc(O)c3ncccc23)CC1

>  <Class>
active

$$$$
>  <Compound>
CN(Cc1ccccc1)C(=S)Nc1cccnc1

>  <Class>
inactive

$$$$
